Test system: ATP;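 also: ATP exposure 15 min at 22 °C before imaging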
measurement_description: switch fluorescence ratio, 500 uM ATP over buffer (Cy3 cluster intensity, sum of 5 cycles each) (fold (ratio)); higher = stronger signal-on switching upon ATP binding; sequences stand for … in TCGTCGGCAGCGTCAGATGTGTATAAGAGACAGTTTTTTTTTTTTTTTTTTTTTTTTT…TC
applied_conditions: aptamer strand: ATP DNA aptamer (quencher-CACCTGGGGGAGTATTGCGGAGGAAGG + anchor), 100 nM annealed; ATP concentration: 500 uM
sequences and their reported switch fluorescence ratio
Could you keep your reply to the number by itself?

Answered cases to consult:
TATATGCCTT: 1.01
GGTTTTCACC: 0.987
ATGTGGATTT: 0.988

Considering `GTTTATGGTT` , its switch fluorescence ratio with ATP was recorded as 1

----------
sequences and their reported switch fluorescence ratio
System: ATP;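 also: ATP exposure 15 min at 22 °C before imaging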
measurement_description: switch fluorescence ratio, 500 uM ATP over buffer (Cy3 cluster intensity, sum of 5 cycles each) (fold (ratio)); higher = stronger signal-on switching upon ATP binding; sequences stand for … in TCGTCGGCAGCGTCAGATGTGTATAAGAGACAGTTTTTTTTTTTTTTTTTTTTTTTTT…TC
applied_conditions: aptamer strand: ATP DNA aptamer (quencher-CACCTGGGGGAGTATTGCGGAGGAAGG + anchor), 100 nM annealed; ATP concentration: 500 uM

AATTTTATGG: 1.01

Considering `CTCCATTGAT` , its switch fluorescence ratio with ATP was recorded as 1.01

Considering `TTTAGTCGCA` , its switch fluorescence ratio with ATP was recorded as 0.998

Considering `TCCGGGGTGT` , its switch fluorescence ratio with ATP was recorded as 1.26

Considering `CTGGGTATAG` , its switch fluorescence ratio with ATP was recorded as 1.02

Considering `GACCGGGCTT` , its switch fluorescence ratio with ATP was recorded as 0.975

Considering `TTTTAATGAG` , its switch fluorescence ratio with ATP was recorded as 0.977

----------
Tested on: ATP;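 also: ATP exposure 15 min at 22 °C before imaging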
measurement_description: switch fluorescence ratio, 500 uM ATP over buffer (Cy3 cluster intensity, sum of 5 cycles each) (fold (ratio)); higher = stronger signal-on switching upon ATP binding; sequences stand for … in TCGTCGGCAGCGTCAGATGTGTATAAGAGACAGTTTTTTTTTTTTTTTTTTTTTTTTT…TC
applied_conditions: aptamer strand: ATP DNA aptamer (quencher-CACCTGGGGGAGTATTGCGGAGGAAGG + anchor), 100 nM annealed; ATP concentration: 500 uM
property: switch fluorescence ratio
Could you keep your reply to the number by itself?

Answered cases to consult:
TGATGGCGTT: 1
AAATGGATCA: 1.02
TATACTCCTG: 1.16
ACAGGGGTTT: 1.37
ACAAATGCAA: 1.12
TTTGATCCTG: 0.971
TGGGAATAAT: 1.03
AATGAAAGAT: 0.998
TTCCAGGGGA: 1.08
GAGAAAATCG: 1

Now consider the entry below.
Value of measured switch fluorescence ratio for the entry `TCTGGCGTAA` : 1.79

----------
Tested on: ATP;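 also: ATP exposure 15 min at 22 °C before imaging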
measurement_description: switch fluorescence ratio, 500 uM ATP over buffer (Cy3 cluster intensity, sum of 5 cycles each) (fold (ratio)); higher = stronger signal-on switching upon ATP binding; sequences stand for … in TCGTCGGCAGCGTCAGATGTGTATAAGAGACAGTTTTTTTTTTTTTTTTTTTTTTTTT…TC
applied_conditions: aptamer strand: ATP DNA aptamer (quencher-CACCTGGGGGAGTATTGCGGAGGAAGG + anchor), 100 nM annealed; ATP concentration: 500 uM
property: switch fluorescence ratio
Could you keep your reply to the number by itself?

AGTTTCCTAG: 0.971
TTAAGGGTTG: 1.02
TACTAACCTT: 1.43
CGGTTTTTTT: 0.978
GGGAAAAGGC: 1.02

Value of measured switch fluorescence ratio for the entry `AATATGTCGG` : 1

Value of measured switch fluorescence ratio for the entry `GCGATTGGCT` : 1.06

Value of measured switch fluorescence ratio for the entry `CCTGAGGTTC` : 1.03

Value of measured switch fluorescence ratio for the entry `GGGTACTGTA` : 1.09

Value of measured switch fluorescence ratio for the entry `TTAATGTTTG` : 0.997
